Ref: paper PMC6522510

Consider the following compounds and their measured pEC50 readings.
- System: U937
- procedure summary: cells
- Design: species or system AML cell lines (8); Secondary HTS, 10-point dose-response in triplicate, Cell Titer Glo viability, four-parameter fit EC50
- measurement conditions: Homo sapiens, U-937, 72 h, read-out: U937
pEC50: −log10 of the molar value.
observation type: pEC50

>  <compound>
O=c1cc(N2CCOCC2)oc2c(-c3ccccc3)cccc12

>  <observation type>
pEC50

>  <measured>
< 5.00

$$$$
>  <compound>
COc1cc(Nc2ncc(F)c(Nc3ccc4c(n3)NC(=O)C(C)(C)O4)n2)cc(OC)c1OC

>  <observation type>
pEC50

>  <measured>
< 5.00

$$$$
>  <compound>
O=C1Nc2ccc(I)cc2/C1=C/c1cc(Br)c(O)c(Br)c1

>  <observation type>
pEC50

>  <measured>
< 5.00

$$$$
>  <compound>
CCCCCCCCCCCCCCCCCCOP(=O)([O-])OC1CC[N+](C)(C)CC1

>  <observation type>
pEC50

>  <measured>
< 5.00

$$$$
>  <compound>
COc1ccc(-c2cc3c(C)nc(N)nc3n([C@H]3CC[C@H](OCCO)CC3)c2=O)cn1

>  <observation type>
pEC50

>  <measured>
6.22

$$$$
>  <compound>
COc1cc2nccc(Oc3ccc(NC(=O)Nc4cc(C)on4)c(Cl)c3)c2cc1OC

>  <observation type>
pEC50

>  <measured>
< 5.00

$$$$
>  <compound>
N[C@H](CCC(=O)N[C@@H](Cc1c[nH]c2ccccc12)C(=O)O)C(=O)O

>  <observation type>
pEC50

>  <measured>
< 5.00

$$$$
>  <compound>
Cc1cc(Nc2nc(N[C@@H](C)c3ncc(F)cn3)ncc2Cl)n[nH]1

>  <observation type>
pEC50

>  <measured>
< 5.00

$$$$
>  <compound>
CC(C)NCCCn1c(Sc2cc3c(cc2I)OCO3)nc2c(N)ncnc21

>  <observation type>
pEC50

>  <measured>
< 5.00

$$$$
>  <compound>
CCNC(=O)c1cc2c(-c3cc(OCCN4CCCC4)c(Cl)cc3Cl)nc(N)nc2s1

>  <observation type>
pEC50

>  <measured>
6.82

$$$$
>  <compound>
O=C(c1ccc(Nc2nccc(-c3cc4ccccc4s3)n2)cc1)N1CCC(N2CCCC2)CC1

>  <observation type>
pEC50

>  <measured>
5.82

$$$$
>  <compound>
O=C1CCC[C@@H]2[C@H]3CCC[N+]4([O-])CCC[C@@H](CN12)[C@@H]34 (some centres unmarked)

>  <observation type>
pEC50

>  <measured>
< 5.00

$$$$
>  <compound>
CC(=O)Nc1cccc(-n2c(=O)n(C3CC3)c(=O)c3c(Nc4ccc(I)cc4F)n(C)c(=O)c(C)c32)c1

>  <observation type>
pEC50

>  <measured>
< 5.00

$$$$
>  <compound>
Cn1cc(CNCC2CCN(c3ncc(C(=O)NO)cn3)CC2)c2ccccc21

>  <observation type>
pEC50

>  <measured>
8.28

$$$$
>  <compound>
CN(C)CC(=O)Nc1ccc2[nH]c(=O)c3ccccc3c2c1

>  <observation type>
pEC50

>  <measured>
< 5.00

$$$$
>  <compound>
NC(=O)c1ccc(-c2nc(-c3ccc4c(c3)OCO4)c(-c3ccccn3)[nH]2)cc1

>  <observation type>
pEC50

>  <measured>
< 5.00

$$$$
>  <compound>
O=C(NC[C@H](O)CO)c1ccncc1Nc1ccc(I)cc1F

>  <observation type>
pEC50

>  <measured>
< 5.00

$$$$

----------
- System: CHRF288-11
- Set-up: species or system AML cell lines (8); Primary HTS, single concentration about 10 uM, Cell Titer Glo viability; log10 luminescence, per cent inhibition relative to cycloheximide control
- measurement conditions: 72 h, relative to cycloheximide control, log10 luminescence, inhibitor, CHRF288-11 %inh, 10 µM
Consider the following molecules and their measured CHRF288-11 %inh readings.
observation type: CHRF288-11 %inh (%)

>  <molecule>
C[C@H](CS)C(=O)N1CCC[C@H]1C(=O)O [SJ000286908-7, CAPTOPRIL]

>  <measured>
0.04975

$$$$
>  <molecule>
CCCCC(=O)N(Cc1ccc(-c2ccccc2-c2nnn[nH]2)cc1)[C@H](C(=O)O)C(C)C [SJ000286083-3]

>  <measured>
2.31

$$$$
>  <molecule>
CC1/C=C/C=C/C=C/C=C/C=C/C=C/C=C/C(OC2O[C@H](C)[C@@H](O)[C@H](N)[C@@H]2O)CC(O)C(C(=O)O)C(O)CC(=O)CC(O)CC(O)CC(O)CC(=O)CCCC(=O)CC(=O)OC1C(C)CC(C)C(O)CC(=O)c1ccc(N)cc1 (single isomer, unassigned) [SJ000565161-2, CANDICIDIN]

>  <measured>
84.68

$$$$
>  <molecule>
CC=CC1=C(C(=O)O)N2C(=O)[C@@H](NC(=O)[C@H](N)c3ccc(O)cc3)[C@H]2SC1 [SJ000565172-1, CEFPROZIL]

>  <measured>
-2.763

$$$$
>  <molecule>
CCCC(CCC)C(=O)O [SJ000287008-5]

>  <measured>
8.896

$$$$
>  <molecule>
CO[C@H]1/C=C/O[C@@]2(C)Oc3c(C)c(O)c4c(O)c(c(/C=N/N5CCN(C6CCCC6)CC5)c(O)c4c3C2=O)NC(=O)/C(C)=C\C=C\[C@H](C)[C@H](O)[C@@H](C)[C@@H](O)[C@@H](C)[C@H](OC(C)=O)[C@@H]1C [SJ000556738-1, RIFAPENTINE]

>  <measured>
-0.1419

$$$$
>  <molecule>
CN(CCCCCCCCCCN(C)C(=O)Oc1cccc([N+](C)(C)C)c1)C(=O)Oc1cccc([N+](C)(C)C)c1 [SJ000287334-3, DEMECARIUM BROMIDE]

>  <measured>
-4.258

$$$$
>  <molecule>
O=C1NC(=O)/C(=C\c2ccc3nccnc3c2)S1 [SJ000534768-3]

>  <measured>
-5.698

$$$$
>  <molecule>
CC=CC1=C(C(=O)O)N2C(=O)[C@@H](NC(=O)[C@H](N)c3ccc(O)cc3)[C@H]2SC1 [SJ000565172-2, CEFPROZIL]

>  <measured>
-7.818

$$$$
>  <molecule>
CCOC(=O)C1=C(C)NC(C)=C(C(=O)OC)C1c1cccc(Cl)c1Cl (single isomer, unassigned) [SJ000287293-6, FELODIPINE]

>  <measured>
40.78

$$$$
>  <molecule>
C[C@H](CS)C(=O)N1CCC[C@H]1C(=O)O [SJ000286908-9, CAPTOPRIL]

>  <measured>
-5.11

$$$$
>  <molecule>
CC=CC1=C(C(=O)O)N2C(=O)[C@@H](NC(=O)[C@H](N)c3ccc(O)cc3)[C@H]2SC1 [SJ000565172-3, CEFPROZIL]

>  <measured>
-2.278

$$$$
>  <molecule>
CO[C@H]1/C=C/O[C@@]2(C)Oc3c(C)c(O)c4c(O)c(c(/C=N/N5CCN(C)CC5)c(O)c4c3C2=O)NC(=O)/C(C)=C\C=C\[C@H](C)[C@H](O)[C@@H](C)[C@@H](O)[C@@H](C)[C@H](OC(C)=O)[C@@H]1C [SJ000000850-7, RIFAMPIN | RIFAMPICIN]

>  <measured>
22.26

$$$$
>  <molecule>
COCCOC(=O)C1=C(C)NC(C)=C(C(=O)OC(C)C)C1c1cccc([N+](=O)[O-])c1 (stereo not drawn) [SJ000285435-9, NIMODIPINE]

>  <measured>
6.868

$$$$
>  <molecule>
Nc1ccc(S(=O)(=O)Nc2ccccn2)cc1 [SJ000285852-4, SULFAPYRIDINE]

>  <measured>
-1.153

$$$$
>  <molecule>
Cc1ccc(C)c(OCCCC(C)(C)C(=O)O)c1 [SJ000285775-4, GEMFIBROZIL]

>  <measured>
-1.527

$$$$
>  <molecule>
CN1CCC(C(=O)Nc2n[nH]c3nc(-c4ccc(O)cc4)c(Br)cc23)CC1 [SJ000573086-2, RW100084-040A1 | AN100368-077A1]

>  <measured>
68.5

$$$$
>  <molecule>
C/C=C(/C(=C/C)c1ccc(O)cc1)c1ccc(O)cc1 [SJ000285735-4, DIENESTROL]

>  <measured>
-2.974

$$$$
>  <molecule>
CO[C@@H]1[C@H](OC(=O)/C=C/C=C/C=C/C=C/C(=O)O)CC[C@]2(CO2)[C@H]1[C@@]1(C)O[C@@H]1CC=C(C)C [SJ000556696-1, FUMAGILLIN]

>  <measured>
12.42

$$$$
>  <molecule>
CCOC(=O)C1=C(C)NC(C)=C(C(=O)OC)C1c1cccc(Cl)c1Cl (single isomer, unassigned) [SJ000287293-7, FELODIPINE]

>  <measured>
33.72

$$$$
>  <molecule>
CCCCNc1cc(C(=O)O)cc(S(N)(=O)=O)c1Oc1ccccc1 [SJ000285893-7, BUMETANIDE]

>  <measured>
-2.258

$$$$
>  <molecule>
C[C@H](CS)C(=O)N1CCC[C@H]1C(=O)O [SJ000286908-10, CAPTOPRIL]

>  <measured>
-3.972

$$$$
>  <molecule>
O=C(O[C@H]1C[C@H]2CC[C@@H](C1)[N+]21CCCC1)C(O)(c1ccccc1)c1ccccc1 [SJ000556733-2, TROSPIUM CHLORIDE]

>  <measured>
0.2164

$$$$
>  <molecule>
COc1ccc2cc(CCC(C)=O)ccc2c1 [SJ000285475-4, NABUMETONE]

>  <measured>
-4.035

$$$$
>  <molecule>
CNC(=O)[C@@H](NC(=O)[C@H](CC(C)C)[C@H](O)C(=O)NO)C(C)(C)C [SJ000772411-1]

>  <measured>
14.63

$$$$
>  <molecule>
C/C=C(/C(=C/C)c1ccc(O)cc1)c1ccc(O)cc1 [SJ000285735-5, DIENESTROL]

>  <measured>
-2.147

$$$$
>  <molecule>
Nc1nccc(-c2c(-c3ccc(F)cc3)ncn2C2CCNCC2)n1 [SJ000573168-2, JB-19127-269D | LD19161-244A1]

>  <measured>
101.4

$$$$
